Some molecules, each annotated with its measured Combin. (100 μM): percentage Colony Forming Units (CFU's) per biofilm.
test system: methicillin resistant S. aureus Mu50 strain (S. aureus ATCC700699) biofilm; assay: Biofilm susceptibility to vancomycin, combination treatment regimen (mature biofilm treated with compound plus vancomycin); assay type: cell-based; details: compound 100 μM together with VAN 20 μg/ml on mature biofilm; compared to the untreated (negative) control
readoutLabel: Combin. (100 μM): percentage Colony Forming Units (CFU's) per biofilm (percentage)

- O=C(CCc1ccccc1)NC[C@]1(O)CO[C@H](CNC(=O)c2ccccc2Cl)[C@H]1O [compound 260]: 71.12
- Cn1cncc1C(=O)NC[C@H]1OC[C@@](O)(CNC(=O)c2ccccc2)[C@@H]1O [compound 210]: 26.95
- O=C(NC[C@]1(O)CO[C@H](CNCc2ccccc2)[C@H]1O)c1ccccc1 [compound 228]: 22.13
- O=C(NC[C@]1(O)CO[C@H](CNC(=O)c2ccccc2Cl)[C@H]1O)c1ccnnc1 [compound 255]: 25.78
- Cn1cc(C(=O)NC[C@H]2OC[C@@](O)(CNC(=O)c3ccccc3)[C@@H]2O)c2ccccc21 [compound 187]: 29.24
- O=C(NC[C@H]1OC[C@@](O)(CNC(=O)c2ccc(-c3ccccc3)cc2)[C@@H]1O)c1ccnnc1 [compound 253]: 22.50
- O=C(NC[C@H]1OC[C@@](O)(CNC(=O)c2ccccc2)[C@@H]1O)c1cccc(Cl)c1 [compound 162]: 29.06
- O=C(NC[C@]1(O)CO[C@H](CN2C(=O)c3ccccc3C2=O)[C@H]1O)c1ccccc1 [compound 173]: 8.805
- O=C(NC[C@H]1OC(O)[C@@](O)(CNC(=O)c2ccc(O)c(O)c2)[C@@H]1O)c1ccc(O)c(O)c1 (stereo partly drawn) [compound 17]: 61.16
- O=C(NC[C@H]1OC[C@@](O)(CNC(=O)c2ccccc2)[C@@H]1O)c1cccc(F)c1 [compound 161]: 16.57
- O=C(NC[C@H]1OC[C@@](O)(CNC(=O)c2ccccc2)[C@@H]1O)c1ccc(Cl)nc1 [compound 202]: 18.24
- O=C(NC[C@]1(O)CO[C@H](CNS(=O)(=O)C(F)(F)F)[C@H]1O)c1ccccc1 [compound 214]: 42.85
- O=C(NC[C@H]1OC[C@@](O)(CNC(=O)c2ccccc2)[C@@H]1O)c1ccc(Cl)c(Cl)c1 [compound 182]: 33.81
- COc1cc(C(=O)NC[C@H]2OC(O)[C@@](O)(CNC(=O)c3cc(OC)c(OC)c(OC)c3)[C@@H]2O)cc(OC)c1OC (stereo partly drawn) [compound 16]: 71.85
- Cc1cccc(C(=O)NC[C@H]2OC[C@@](O)(CNC(=O)c3ccccc3)[C@@H]2O)c1 [compound 160]: 23.39

====

Test system: methicillin resistant S. aureus Mu50 strain (S. aureus ATCC700699) biofilm
Test: Biofilm susceptibility to vancomycin, pre-treatment regimen (biofilm formed in presence of compound, then vancomycin)
Type: cell-based
Conditions: concentration needed to get 50% killing compared to antibiotic alone (VAN 20 μg/ml) and complete killing; read-out: Pretreat. (EC50)
Procedure: The compounds were evaluated for their effect on biofilm susceptibility both under pre-treatment and combination treatment regimens. […] The number of surviving cells under each condition was compared to vancomycin treatment alone and was assessed by conventional plating. […] The number of surviving cells under each condition was compared to the untreated control biofilm and was assessed by conventional plating.
readoutLabel: log10 of EC50 (log10 of the value in µM)

• O=C(NC[C@H]1OC[C@@](O)(CNC(=O)c2ccccc2)[C@@H]1O)c1ccnnc1 = 0.86
• O=C(NC[C@]1(O)CO[C@H](CN2C(=O)c3ccccc3C2=O)[C@H]1O)c1ccnnc1 = 0.77
• O=C(NC[C@]1(O)CO[C@H](CNC(=O)c2ccccc2Cl)[C@H]1O)c1ccc(-c2ccccc2)cc1 = 1.07
• O=C(NC[C@H]1OC[C@@](O)(CNC(=O)c2ccccc2Cl)[C@@H]1O)c1ccccc1Cl = 0.73
• O=C(NC[C@H]1OC[C@@](O)(CNC(=O)c2ccnnc2)[C@@H]1O)c1ccc(-c2ccccc2)cc1 = 1.19
• COc1cc(C(=O)NC[C@H]2OC(O)[C@@](O)(CNC(=O)c3cc(OC)c(OC)c(OC)c3)[C@@H]2O)cc(OC)c1OC (stereo partly shown) = 2.32
• O=C(NC[C@]1(O)CO[C@H](CNC(=O)c2ccccc2Cl)[C@H]1O)c1ccccc1F = 1.69

====

system: methicillin resistant S. aureus Mu50 strain (S. aureus ATCC700699) biofilm; test: Biofilm susceptibility to vancomycin, pre-treatment regimen (biofilm formed in presence of compound, then vancomycin); assay type: cell-based; conditions: compound 25 μM during biofilm formation, then VAN 20 μg/ml; compared to the untreated (negative) control
Classes (Pretreat. (25 μM): percentage Colony Forming Units (CFU's) per biofilm): low: < 50 percentage; middle: ≥ 50 percentage and < 70 percentage; high: ≥ 70 percentage

- O=C(NC[C@]1(O)CO[C@H](CNC(=O)c2ccccc2Cl)[C@H]1O)c1cccc(C(F)(F)F)c1 [compound 242]: high
- CN(C)c1ccc(C(=O)NC[C@]2(O)CO[C@H](CNC(=O)c3ccccc3Cl)[C@H]2O)cc1 [compound 237]: middle
- O=C(NC[C@]1(O)CO[C@H](CNC(=O)c2ccccc2Cl)[C@H]1O)c1cccc(Cl)c1 [compound 241]: high
- O=C(NC[C@]1(O)CO[C@H](CNC(=O)c2ccccc2Cl)[C@H]1O)c1ccoc1 [compound 247]: low
- Cc1ccccc1C(=O)NC[C@]1(O)CO[C@H](CNC(=O)c2ccccc2Cl)[C@H]1O [compound 244]: low
- O=C(NC[C@]1(O)CO[C@H](CNC(=O)c2ccccc2Cl)[C@H]1O)c1ccc(C(F)(F)F)cc1 [compound 238]: low
- Cc1ccc(C(=O)NC[C@]2(O)CO[C@H](CNC(=O)c3ccccc3Cl)[C@H]2O)cc1 [compound 232]: middle
- O=C(NC[C@]1(O)CO[C@H](CNC(=O)c2ccccc2Cl)[C@H]1O)c1cccnc1 [compound 243]: high
- N#Cc1ccc(C(=O)NC[C@]2(O)CO[C@H](CNC(=O)c3ccccc3Cl)[C@H]2O)cc1 [compound 236]: high
- COc1ccc(C(=O)NC[C@]2(O)CO[C@H](CNC(=O)c3ccccc3Cl)[C@H]2O)cc1 [compound 235]: middle
- O=C(NC[C@]1(O)CO[C@H](CNC(=O)c2ccccc2Cl)[C@H]1O)c1ccco1 [compound 246]: high
- O=C(NC[C@]1(O)CO[C@H](CNC(=O)c2ccccc2Cl)[C@H]1O)c1ccc(Cl)cc1 [compound 234]: middle

====

Some molecules, each annotated with its measured pEC50.
Test system: methicillin resistant S. aureus Mu50 strain (S. aureus ATCC700699) biofilm
Assay: Biofilm susceptibility to vancomycin, pre-treatment regimen (biofilm formed in presence of compound, then vancomycin)
Format: cell-based
Settings: concentration needed to get 50% killing compared to antibiotic alone (VAN 20 μg/ml) and complete killing; read-out: Pretreat. (EC50)
Protocol: The compounds were evaluated for their effect on biofilm susceptibility both under pre-treatment and combination treatment regimens. […] The number of surviving cells under each condition was compared to vancomycin treatment alone and was assessed by conventional plating. […] The number of surviving cells under each condition was compared to the untreated control biofilm and was assessed by conventional plating.
pEC50: −log10 of the molar value.
readoutLabel: pEC50

* O=C(NC[C@H]1OC[C@@](O)(CNC(=O)c2ccccc2)[C@@H]1O)c1ccncc1 [compound 158] | 5.00
* Cc1ccc(C(=O)NC[C@]2(O)CO[C@H](CNC(=O)c3ccccc3Cl)[C@H]2O)cc1 [compound 232] | 4.10
* O=C(NC[C@]1(O)CO[C@H](CNCc2ccccc2)[C@H]1O)c1ccccc1 [compound 228] | 4.39
* O=C(NC[C@H]1OC(O)[C@@](O)(CNC(=O)c2cccc(O)c2)[C@@H]1O)c1cccc(O)c1 (some centres unmarked) [compound 19] | 4.41
* O=C(NC[C@H]1OC[C@@](O)(CNC(=O)c2ccc(-c3ccccc3)cc2)[C@@H]1O)c1ccnnc1 [compound 253] | 5.07
* O=C(NC[C@]1(O)CO[C@H](CNC(=O)c2c(Cl)ccnc2Cl)[C@H]1O)c1ccccc1 [compound 196] | 4.89
* O=C(NC[C@H]1OC(O)[C@@](O)(CNC(=O)c2ccc(O)cc2)[C@@H]1O)c1ccc(O)cc1 (some centres unmarked) [compound 20] | 4.07
* O=C(NC[C@]1(O)CO[C@H](CNC(=O)c2cnccc2Cl)[C@H]1O)c1ccccc1 [compound 201] | 3.70

====

Some compounds, each annotated with its measured Pretreat. (25 μM): percentage Colony Forming Units (CFU's) per biofilm.
test system: methicillin resistant S. aureus Mu50 strain (S. aureus ATCC700699) biofilm; experiment: Biofilm susceptibility to vancomycin, pre-treatment regimen (biofilm formed in presence of compound, then vancomycin); assay type: cell-based; details: compound 25 μM during biofilm formation, then VAN 20 μg/ml; compared to the untreated (negative) control
readoutLabel: Pretreat. (25 μM): percentage Colony Forming Units (CFU's) per biofilm (percentage)

* O=C(NC[C@]1(O)CO[C@H](CNC(=O)c2ccccc2Cl)[C@H]1O)c1ccc(F)cc1 | 88.61
* O=C(NC[C@]1(O)CO[C@H](CNC(=O)c2ccccc2Cl)[C@H]1O)c1ccccc1F | 61.75
* O=C(NC[C@]1(O)CO[C@H](CNC(=O)c2ccccc2Cl)[C@H]1O)c1cccc(F)c1 | 118.37
* O=C(NC[C@]1(O)CO[C@H](CNC(=O)c2ccccc2Cl)[C@H]1O)c1cncnc1 | 64.01
